Experiment: small-molecule microarray binders of probe aEGFR, primary screen, biochemical, biotinylated probe, 635/667 nm fluorescence (AID 1097);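 note: probe is a biotinylated anti-EGFR antibody binding compounds printed on slides; score combines fluorescence near 667 nm and signal to noise of each spot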
Settings: higher = more signal
We begin with a simple list: items and their reported composite z-score.
Could you keep your reply to the number by itself?

{"columns": ["molecule", "endpoint.label", "test.value"],
 "data": [
  ["CCCCC(=C=CC[C@@H](O)c1ccc(OCCO)cc1)C[C@@H](O)c1ccccn1", "composite z-score", -0.0787],
  ["COCCOC(=O)N1C(=O)[C@@]2(c3cc(C#CC4(O)CCCCCC4)ccc31)[C@H](c1ccccc1OCCO)N1[C@H](c3ccccc3)[C@H](c3ccccc3)OC(=O)[C@H]1[C@@H]2C(=O)N1CCCCCCC1", "composite z-score", -0.0351]
]}

Query :: Report composite z-score for C[C@H]1C2[C@H](Cc3ccccc3)NC(=O)[C@]23C(=O)NCC(=O)N2CCC[C@H]2C(=O)NC/C=C\C/C=C/C3[C@@H]2O[C@]12C (stereo not given in full) please.
Result :: -0.0531

Query :: Then this molecule: `Cc1ccc(S[C@]2(C(=O)NC3CC3)CC(=O)N(Cc3cc(C(F)(F)F)cc(C(F)(F)F)c3)[C@@H]2c2ccc(CO)cc2I)cc1`
Result :: 0.395

Query :: Then this molecule: `C=CCNC(=O)[C@@H]1[C@H]2C(=O)O[C@H](c3ccccc3)[C@H](c3ccccc3)N2[C@H](c2ccc(O)cc2)[C@@]12C(=O)Nc1ccc(C#CC3(O)CCCCCC3)cc12`
Result :: -0.013

====

Molecular target: Concanavalin-A (Canavalia ensiformis)
Test: ConA small-molecule binders, primary screen, artefact control for SMM control protein annotation, biochemical, small-molecule microarray, Alexa647 label, 635 nm (AID 1127);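 note: z combines 667 nm emission intensity with signal-to-noise across three replicate slides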
Details: ConA-A647 binding fluorescence, higher = more signal
Label 1.0 when composite z-score is at or above 0.5; otherwise label 0.0.

Solved entries:
{"columns": ["molecule", "experimental.system", "class"],
 "data": [
  ["CCC[C@@H]1C=C(C(=O)OCC)[C@H](c2ccccc2)N1S(=O)(=O)c1ccc(C)cc1", "Concanavalin-A (Canavalia ensiformis)", 1.0],
  ["C=CCNC(=O)[C@H]1[C@@H]2C(=O)O[C@@H](c3ccccc3)[C@@H](c3ccccc3)N2[C@@H](c2ccccc2OCCO)[C@]12C(=O)N(C(=O)OCCOC)c1ccccc12", "Concanavalin-A (Canavalia ensiformis)", 1.0],
  ["CN(C)CCCC[C@@H]1NC(=O)[C@H]2C[C@@H](C(=O)NCc3ccc(F)cc3)[C@@H](c3ccc(O)cc3)N2C1=O", "Concanavalin-A (Canavalia ensiformis)", 1.0]
]}

Query :: Reported composite z-score at or above 0.5? `COC(=O)[C@@H]1N=C(c2ccc(OCCCO)cc2)O[C@@H]1c1ccccc1CN=[N+]=[N-]`
Result :: 0.0

Query :: Then this molecule: `COc1ccc(NC(=O)O[C@H]2[C@H](OC(=O)Nc3ccc4c(c3)OCO4)[C@H](OC(=O)Nc3ccc4c(c3)OCO4)[C@@H](OC)O[C@@H]2CO)cc1`
Result :: 1.0

Query :: Then this molecule: `O=C1c2ccccc2[C@@]2(Cc3ccccc3N(Cc3ccccc3)C2=O)[C@H](c2ccc(CO)cc2)N1Cc1ccccc1`
Result :: 0.0

Query :: Then this molecule: `CO[C@H]1O[C@H](CO)[C@@H](OC(=O)Nc2ccc(C(F)(F)F)cc2)[C@H](OC(=O)Nc2ccccc2-c2ccccc2)[C@H]1OC(=O)Nc1ccccc1-c1ccccc1`
Result :: 1.0

====

Target: Focal adhesion kinase 1 (Homo sapiens) (UniProt Q05397)
Sequence (Q05397 whole entry, looked up): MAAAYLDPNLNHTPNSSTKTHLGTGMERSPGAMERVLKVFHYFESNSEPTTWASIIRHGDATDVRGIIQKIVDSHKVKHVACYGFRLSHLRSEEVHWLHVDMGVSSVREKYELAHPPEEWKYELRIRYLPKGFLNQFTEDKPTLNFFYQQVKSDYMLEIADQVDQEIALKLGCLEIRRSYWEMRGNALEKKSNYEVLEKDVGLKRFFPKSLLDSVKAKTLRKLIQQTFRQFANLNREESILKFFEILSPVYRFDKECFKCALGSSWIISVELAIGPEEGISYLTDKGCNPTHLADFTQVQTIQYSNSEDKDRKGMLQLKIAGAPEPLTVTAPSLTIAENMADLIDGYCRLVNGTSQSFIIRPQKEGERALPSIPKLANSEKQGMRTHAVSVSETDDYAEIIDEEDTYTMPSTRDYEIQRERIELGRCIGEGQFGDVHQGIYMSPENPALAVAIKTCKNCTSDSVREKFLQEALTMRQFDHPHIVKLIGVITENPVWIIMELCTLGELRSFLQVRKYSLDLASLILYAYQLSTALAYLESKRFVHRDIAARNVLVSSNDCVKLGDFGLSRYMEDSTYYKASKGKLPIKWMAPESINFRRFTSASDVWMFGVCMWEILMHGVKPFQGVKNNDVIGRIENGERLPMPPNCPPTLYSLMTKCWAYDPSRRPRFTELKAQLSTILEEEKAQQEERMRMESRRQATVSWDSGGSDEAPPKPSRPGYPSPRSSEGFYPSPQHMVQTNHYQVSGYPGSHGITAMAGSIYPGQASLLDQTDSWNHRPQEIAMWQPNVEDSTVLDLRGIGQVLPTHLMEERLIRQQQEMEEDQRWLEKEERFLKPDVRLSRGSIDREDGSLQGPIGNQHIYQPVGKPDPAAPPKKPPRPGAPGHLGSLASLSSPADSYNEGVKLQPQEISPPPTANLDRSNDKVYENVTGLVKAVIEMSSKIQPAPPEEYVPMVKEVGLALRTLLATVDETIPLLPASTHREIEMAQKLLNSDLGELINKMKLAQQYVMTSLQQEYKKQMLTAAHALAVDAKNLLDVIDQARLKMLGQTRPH
Assay: small-molecule microarray binders of FAK, primary screen, biochemical, 635/667 nm fluorescence, BSA, DTT (AID 1130);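 note: composite of spot emission at 667 nm and signal to noise over triplicate slides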
Details: PTK2 binding, 635 nm fluorescence, higher = more signal
We begin with a simple list: items and their reported composite z-score.
Could you keep your reply to the number by itself?

A selection of reference data follows.
{"columns": ["molecule", "endpoint.label", "test.value"],
 "data": [
  ["CC(C)=CCN(C(=O)C#Cc1ccccc1)[C@H](CO)c1ccccc1", "composite z-score", -0.0317],
  ["C=CCNC(=O)[C@@H]1[C@H]2C(=O)O[C@H](c3ccccc3)[C@H](c3ccccc3)N2[C@H](c2ccc(O)cc2)[C@@]12C(=O)Nc1ccc(C#CC3(O)CCCCCC3)cc12", "composite z-score", 1.31],
  ["CCCCCN1CC=CC23O[C@@H]4C=CCOC(=O)[C@@H]4[C@H]2C(=O)N(CCCCCO)[C@@H]3C1=O (some centres undefined)", "composite z-score", 0.0875]
]}

// next entry
Query :: Report composite z-score for `COC(=O)[C@@H]1N=C(c2ccc(OCCCO)cc2)O[C@@H]1c1ccccc1CN=[N+]=[N-]` please.
Result :: 0.841

====

Assay: binders from COS7 lysate, DM2A8 probe, primary screen, torsin A project, cell lysate, small-molecule microarray, fluorescence 635/667 (AID 1065)
Conditions: higher = more signal, COS7 lysate expressing mutant human TOR1A
We begin with a simple list: items and their reported composite z-score.
Could you keep your reply to the number by itself?

{"columns": ["molecule", "endpoint.label", "test.value"],
 "data": [
  ["CCOC(=O)C[C@H]1[C@H](OC(=O)c2ccc(-c3ccccc3)cc2)[C@@H](NC(=O)c2ccc3ccccc3c2)c2cc(OCCCO)ccc2N1C(=O)c1ccccc1", "composite z-score", -0.0761],
  ["COCCOC(=O)N1C(=O)[C@@]2(c3cc(C#CCCO)ccc31)[C@H](c1ccc(O)cc1)N1[C@H](c3ccccc3)[C@H](c3ccccc3)OC(=O)[C@H]1[C@@H]2C(=O)N1CCc2cc(OC)c(OC)cc2C1", "composite z-score", 0.366]
]}

// next entry
Query :: Report composite z-score for CCCCC(O)C1C=CC2C(=O)NC(=O)C2N1Nc1ccccn1 (configuration not stated) please.
Result :: -0.0611

====

Test: CREB reporter modulators under forskolin, primary screen, cell-based, PC12, CRE-LacZ reporter, forskolin-stimulated (AID 1146);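 note: PC12 cells with 6xCRE LacZ reporter stimulated by forskolin 10 µM; beta-galactosidase reporter signal reflecting CREB driven transcription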
Settings: luminescence, 4.5 h, higher = more signal, called active from +8 up or from −8 down
We begin with a simple list: items and their reported z-score.
Could you keep your reply to the number by itself?

A selection of reference data follows.
{"columns": ["mol.smiles", "z-score"],
 "data": [
  ["C=CCOC(=O)[C@H]1[C@@H]2C(=O)O[C@@H](c3ccccc3)[C@@H](c3ccccc3)N2[C@@H](c2ccc(OCCOC(=O)[C@@H]3C[C@@H]4C(=O)N[C@@H](CC(C)C)C(=O)N4[C@@H]3c3ccc(O)cc3)cc2)[C@]12C(=O)Nc1ccc(I)cc12", 0.318],
  ["CCOC(=O)C1=CC[C@@H](c2ccccc2)N(S(=O)(=O)c2ccc(C)cc2)[C@H]1C#N", 3.56]
]}

// next entry
Query :: Report z-score for `O=C(NCC(F)(F)F)[C@@H]1c2ccccc2C(=O)N(CC23CC4CC(CC(C4)C2)C3)[C@H]1c1ccc(CO)cc1` please.
Result :: -1.46

====

Assay: basal HepG2 mitochondrial membrane potential changes, profiling panel, cell-based, JC-1 fluorescence, 24 h, 100 nL compound (AID 1167); note: test concentration not given here
Conditions: higher = more signal
We begin with a simple list: items and their reported z-score.
Could you keep your reply to the number by itself?

A selection of reference data follows.
{"columns": ["compound", "z-score"],
 "data": [
  ["C=CCC(OC(C)=O)[C@@H]1[C@@H](N(Cc2ccc(-c3cccc(C(F)(F)F)c3)o2)C(=O)Cc2ccc(F)cc2)c2cc(OCCCO)ccc2N1C(=O)c1ccc2ccccc2c1 (some centres undefined)", 2.03],
  ["O=C1OCCC=C[C@H]2OC34C=CCN(c5ccc(Cl)cc5)C(=O)[C@H]3N(CCO)C(=O)[C@@H]4C12 (some centres undefined)", -0.28],
  ["CCCCC(=C=CC[C@H](O)c1ccc(OCCO)cc1)C[C@H](O)c1ccccn1", -0.0776]
]}

// next entry
Query :: Report z-score for `CC(C)C[C@@H]1NC(=O)[C@H]2C[C@@H](C(=O)NCCCCCNC(=O)CS)[C@@H](c3ccc(O)cc3)N2C1=O` please.
Result :: -0.686

====

Assay: S. cerevisiae RM11-1a growth modifiers, primary screen, strain RM11-1a, OD600, basal, 24 h (AID 1177);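 note: cultures grown under basal conditions with no added stressor; test concentration not given here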
Conditions: OD600, 24 h, higher = more signal, called active from +8 up or from −8 down
endpoint.label: z-score
Could you keep your reply to the number by itself?

A selection of reference data follows.
{"columns": ["compound", "endpoint.label", "test.value"],
 "data": [
  ["CC1CC/C=C\\[C@H]2OC34C=CCN(c5ccc(Cl)cc5)C(=O)[C@H]3N(CCCO)C(=O)[C@]4(C)C2C(=O)O1 (stereo partly drawn)", "z-score", 0.941],
  ["Cc1c(NC(=O)/C(C#N)=C/c2ccc(Cl)cc2)c(=O)n(-c2ccccc2)n1C", "z-score", -0.704],
  ["Cc1ccc(S[C@]2(C(=O)NCCN3CCOCC3)CC(=O)N(C3CCCCC3)[C@@H]2c2ccc(CO)cc2I)cc1", "z-score", 1.27],
  ["CC(C)C(=C=CC[C@@H](O)c1ccc(OCCO)cc1)CCO", "z-score", -1.17]
]}

Query :: Report z-score for `COC(=O)[C@@]1(Cc2ccc(F)cc2)[C@H]2c3cc(C(=O)N(C)C)n(CCN4CCOCC4)c3C[C@H]2CN1C(=O)c1ccccc1` please.
Result :: 0.7

Query :: Then this compound: CCCCCN1CC=CC23O[C@@H]4C=CCOC(=O)[C@@H]4[C@H]2C(=O)N(CCCCCO)[C@@H]3C1=O (stereo partly drawn)
Result :: -0.196

Query :: Then this compound: `COc1cccc(C[C@H]2C[C@@H](CO[Si](C(C)C)(C(C)C)C(C)C)N3C(=O)[C@@]4(C(C)=O)O[C@@]23[C@@H]2C(=O)N(C)C(=O)[C@@H]24)c1`
Result :: 0.993

Query :: Then this compound: `COC(=O)[C@@]1(Cc2ccc(OC)cc2)[C@H]2c3cc(C(=O)N(C)C)n(Cc4ccsc4Br)c3C[C@H]2CN1C(=O)c1ccccc1`
Result :: 1.89
